These entries and their values trace back to paper PMC7575488.

assay notes: Blood pharmacokinetics (dried blood spot LC-MS/MS, non-compartmental analysis)
Assay type: in vivo, human
measurement setup: human, whole blood, oral, 150 mg, 150 mg BID, Cycle 1 Day 15 (multiple dose), blood, N = 3; geometric mean (% CV)
Procedure: For PK assessment, blood samples were collected at pre dose and 0.5, 1, 2, 4, 8, and 12 h post dose on 2 occasions: (i) on Day 1 of Cycle 1 (single dose), and (ii) on Day 15 of Cycle 1 (multiple dose). For PD assessment, blood samples were collected at pre dose and 0.5, 1, 2, and 4 h post dose on 2 occasions: (i) on Day 1 of Cycle 1 (single dose), and (ii) on Day 15 of Cycle 1 (multiple dose). […]
measurement label: Cmax (µg/mL)
Please state the figure in µg/mL; there is no need to write the unit.

Cmax reported for this molecule `CO[C@@H](C)Cn1c(=O)n(C)c2cnc3ccc(-c4cncc(C(C)(C)O)c4)cc3c21` : 1.57
